# SYSTEM NAME: T1, Rhesus macaque CD4-HIS (Acro Biosystems, Cat. CD4-C52H7) (rhesus macaque, UniProt P16003 26-390)
# T1 construct: Bought reagent; also called Rhesus CD4; rhesus CD4-HIS; not shown: His tag
# T1 sequence (P16003 26-390 limits assumed): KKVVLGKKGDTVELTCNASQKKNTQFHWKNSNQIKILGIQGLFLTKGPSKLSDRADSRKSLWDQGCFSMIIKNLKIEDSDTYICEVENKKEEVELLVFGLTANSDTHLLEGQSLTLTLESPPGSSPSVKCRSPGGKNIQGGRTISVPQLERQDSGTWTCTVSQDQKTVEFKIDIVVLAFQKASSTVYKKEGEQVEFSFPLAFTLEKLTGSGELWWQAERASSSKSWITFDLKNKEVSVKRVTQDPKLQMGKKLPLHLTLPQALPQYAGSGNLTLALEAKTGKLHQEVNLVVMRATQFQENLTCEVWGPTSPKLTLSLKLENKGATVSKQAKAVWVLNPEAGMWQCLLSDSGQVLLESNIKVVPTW
# EXPERIMENT SUMMARY: BLI (Octet Red384); Ab on anti-mouse Fc (AMC) sensor; rhesus CD4-HIS 100/50/25 nM; global 1:1 fit;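 note: antibodies loaded at 10 µg/mL, an unrelated mouse-derived antibody served as internal reference, curves fit over association and dissociation phases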
ATTRIBUTE MEASURED: Kd (nM)
The response must be a number in nM with no trailing unit.

Respond only with Kd recorded for 75110_06C16A (antibody, V domains shown, Tested as antibody purified from AlivaMab Mouse hybridoma supernatant (human variable domains, kappa; mouse Fc, captured on anti-mouse IgG Fc sensors); also called ADS75110 purified AMM Ab) VH: QVQLQESGPGLVTPSETLSLSCTVSGGSISDYYWSWIRQPGGKGLEWIGRIYSSGSTNYNPSLKSRVTMSVDTSKNQFSLKLSSVTAADTAVYFCARDREDYYYYGMDVWGQGTTVTVSS VL: DIQMTQSPSSLSASVGDRVTITCQASHDISNYLNWYQQKPGKAPKLLIYAASNLETGVPSRFSGSGSGTDFSFTISSLQPEDIATYYCQQYDHLPLTFGGGTKVEIK
27

Please report Kd for the following binder: 75110_12H17A (antibody, V domains shown, Tested as antibody purified from AlivaMab Mouse hybridoma supernatant (human variable domains, kappa; mouse Fc, captured on anti-mouse IgG Fc sensors); also called ADS75110 purified AMM Ab) VH: EVQLVESGGGLVQPGGSLRLSCAASGFTFSDYWMSWVRQAPGKGLEWVANIKEDGNEKYYVDSVKGRFTISRDNAKNSLFLQMNSLRAEDTAVYYCAREGGQWLALDYWGQGALVTVSS VL: DIQMTQSPSSVSASVGDRVTITCRASQGISSWLAWYQQKPGKAPKFLISGASSLQSGVPSRFTGSGSGTDFTLTISSLQPEDFATYYCQQANSFPWTFGQGTKVEIK
22

State its Kd for this binder: 75110_09G15A (antibody, V domains shown, Tested as antibody purified from AlivaMab Mouse hybridoma supernatant (human variable domains, kappa; mouse Fc, captured on anti-mouse IgG Fc sensors); also called ADS75110 purified AMM Ab) VH: EVQLVESGGGLVQPGGSLRLSCAASGFTFSDYWMSWVRQAPGKGLEWVANINQDGSEKYSVDSVKGRFTISRDNAKNSLYLQMNSLRAEDTAIFYCAREGGQWLALDYWGQGTLVTVSS VL: DIQMTQSPSSVSASVGDRVTITCRASQGISSWLAWYQQKPGKAPKLLIYGASSLQSGVPSRFSGSGSGTDFTLTINSLQPEDFTTYYCQQANIFPWTFGQGTKVEIK
36

Others:
Hello, please tell me recorded Kd for this one: 75110_11D03A (antibody, V domains shown, Tested as antibody purified from AlivaMab Mouse hybridoma supernatant (human variable domains, kappa; mouse Fc, captured on anti-mouse IgG Fc sensors); also called ADS75110 purified AMM Ab) VH: EVQLVESGGGLVQPGGSLRLSCAASGFTFSSYWMSWVRQAPGKGLEWVANINQDGNEKYYVDSVKGRFTISRDNAKNSLFLQMNSLRAEDTAVYYCAREGGQWLALDYWGQGALVTVSS VL: DIQMTQSPSSVSASVGDRVTITCRASQGISSWLAWYQQKPGKAPKFLISGASSLQSGVPSRFSGSGSGTDFTLTISSLQPEDFATYYCQQANSFPWTFGQGTKVEIK
3.5
